Where do these numbers come from? They come from ChEMBL document CHEMBL1201862.

system: NCI-H522; assay: NCI tumour cell line growth inhibition, 48 h
Calls of active or inactive are those of the source. No stated cut-off is given here; in the data, active = GI50 up to about 1.1 µM and inactive = higher.
Respond only with the outcome that fits, drawn from active, inactive

These recorded examples may help you get a feel for the data.
CCOC(NC(=O)CC)(C(F)(F)F)C(F)(F)F	inactive
c1cncc(-c2ncc3cccnc3n2)c1	inactive
[C-]#[N+][C@@H]1C2[C@H](CC[C@@]1(C)O)C(=C)CC[C@@H]2[C@@]1(C)CC[C@H](Cl)C(C)(C)O1 (some centres not stated)	inactive
COc1ccc(C2OCCN2C)cc1 (configuration not stated)	inactive
COc1ccc(N2C(=O)[C@@H](N=[N+]=[N-])[C@@H]2[C@H]2COC(C)(C)O2)cc1	inactive
CSc1[nH]cnc1C(N)=S	inactive
O=C1C=C(O)C(=O)c2c(O)ccc(O)c21	inactive
Cc1nc(O)nc(N/N=C/c2ccc(Cl)c(Cl)c2)c1C(=O)Nc1ccc(Cl)c(Cl)c1	inactive
O=C(C(=O)n1ccc2ccccc21)c1c[nH]c2ccccc12	inactive
CC1(C)[N+]([O-])=[N+]([O-])C1(C)Br (configuration not stated)	inactive

Dear all, I need the recorded test outcome for Cc1ccc(C2C(C(=O)C(C)(C)C)N2S(=O)(=O)c2ccc(C)cc2)cc1 (configuration not stated) , thank you.
inactive

Dear all, I need the recorded test outcome for CCOC(=O)Cc1nn2c(=O)cc(C)nc2s1 , thank you.
inactive

Dear all, I need the recorded test outcome for C=CCN(c1cc(OC)c2[nH]c(C(=O)O)c(C)c2c1[N+](=O)[O-])S(C)(=O)=O , thank you.
inactive

Dear all, I need the recorded test outcome for O=C1C(=c2cc3c(c4ccccc24)=NC24CCCCC2C(c2ccccc2)C=C(c2ccccc2)N34)C(=O)c2ccccc21 (configuration not stated) , thank you.
inactive

----------
system: NCI-H522; test: NCI tumour cell line growth inhibition, 48 h
The source made the active and inactive calls. Cut-off read from the data, not from the text of the source: active = GI50 up to about 1.1 µM and inactive = higher.
readout.name: GI50

# count of solved cases: 5
O=C(O)c1ccccc1CC(Cc1ccc2c(c1)CCC2)C(=O)O (stereo unspecified)	> 100 µM (inactive)
CC(N)Cc1ccc(C(=O)Cl)cc1 (stereo unspecified)	> 100 µM (inactive)
CN(C)CCNC(=O)c1ccc(NC(=O)c2nc([N+](=O)[O-])cn2C)cc1	> 100 µM (inactive)
Oc1c(C(Nc2ccccn2)c2ccccc2)ccc2cccnc12 (stereo unspecified)	2.68 µM (inactive)
O=C(Nc1ccccc1C(=O)O)C(=O)C(C(=O)c1ccccc1-c1ccccc1)C1OC(=O)c2ccccc21 (stereo unspecified)	16.2 µM (inactive)

Please state recorded GI50 (tested on NCI-H522) of O=C1N/C(=N/N=C\c2ccccc2)N/C1=C/c1ccc(Cl)cc1
18.5 µM (inactive)

Please state recorded GI50 (tested on NCI-H522) of N=C(N)/N=C(\N)Nc1cnccn1
> 100 µM (inactive)

Please state recorded GI50 (tested on NCI-H522) of Nc1ncnc2c1ncn2C1OC(CSCC(F)(F)F)C(O)C1O (stereo unspecified)
45 µM (inactive)

Please state recorded GI50 (tested on NCI-H522) of COC(=O)C1(C)NCCc2c1[nH]c1ccccc21 (stereo unspecified)
> 100 µM (inactive)

Please state recorded GI50 (tested on NCI-H522) of CC(C)OP(=O)(OC(C)C)C(C(C)C)N(C)/C(F)=N/C(F)(F)F (stereo unspecified)
> 100 µM (inactive)

Please state recorded GI50 (tested on NCI-H522) of Cc1cc2c(cc1Cl)SC(NNC(=O)c1ccco1)=NS2(=O)=O
> 10 µM (inactive)
